test: Stability of the compound in human plasma assessed as half life by LC-MS/MS analysis
Assay type: ADME, cell-free
measurementLabel: half-life

// O=C(N[C@@H]1CCCNC1)c1cccc(Nc2ncc(Cl)c(NCc3cccc(F)c3)n2)c1 : half-life value = > 4.82 h

###

test: Metabolic stability in human liver microsomes assessed as half life in presence of NADPH by LC-MS/MS analysis
Type: ADME, Microsome
measurementLabel: half-life

// O=C(N[C@@H]1CCCNC1)c1cccc(Nc2ncc(Cl)c(NCc3cccc(F)c3)n2)c1 : half-life value = > 145 min

###

test: Cmax in Sprague-Dawley rat at 3 mg/kg, po by LC-MS/MS analysis
Type: ADME, organism-based
Design: dose 3 mg/kg, route po
assaySetup: in vivo
measurementLabel: Cmax (ng/mL)
Write it as a number; the unit ng/mL goes unstated.

// O=C(N[C@@H]1CCCNC1)c1cccc(Nc2ncc(Cl)c(NCc3cccc(F)c3)n2)c1 : Cmax value = 33.6

###

test: Volume of distribution at steady state in Sprague-Dawley rat at 1 mg/kg, iv by LC-MS/MS analysis
Type: ADME, organism-based
assaySetup: in vivo, read-out: Vdss
measurementLabel: Vd
Number first, unit second: that is the form wanted.

// O=C(N[C@@H]1CCCNC1)c1cccc(Nc2ncc(Cl)c(NCc3cccc(F)c3)n2)c1 : Vd value = 31 L/kg

###

test: Tmax in Sprague-Dawley rat at 3 mg/kg, po by LC-MS/MS analysis
Assay type: ADME, organism-based
assaySetup: in vivo
measurementLabel: Tmax

// O=C(N[C@@H]1CCCNC1)c1cccc(Nc2ncc(Cl)c(NCc3cccc(F)c3)n2)c1 : Tmax value = 4 h

###

test: AUClast in Sprague-Dawley rat at 3 mg/kg, po by LC-MS/MS analysis
Assay type: ADME, organism-based
Parameters: time 0 - last, dose 3 mg/kg, route po
assaySetup: in vivo
measurementLabel: AUC(0-t)
Number first, unit second: that is the form wanted.

// O=C(N[C@@H]1CCCNC1)c1cccc(Nc2ncc(Cl)c(NCc3cccc(F)c3)n2)c1 : AUC(0-t) value = 188 ng·h/mL

###

test: Metabolic stability in human liver assessed as intrinsic clearance in presence of NADPH by LC-MS/MS analysis
Format: ADME, tissue-based
assaySetup: read-out: CLH
measurementLabel: CLint scaled

// O=C(N[C@@H]1CCCNC1)c1cccc(Nc2ncc(Cl)c(NCc3cccc(F)c3)n2)c1 : CLint scaled value = < 8.6 mL/min/kg

###

test: Half life in Sprague-Dawley rat at 1 mg/kg, iv by LC-MS/MS analysis
Type: ADME, organism-based
assaySetup: in vivo
measurementLabel: half-life (min)
Write it as a number; the unit min goes unstated.

// O=C(N[C@@H]1CCCNC1)c1cccc(Nc2ncc(Cl)c(NCc3cccc(F)c3)n2)c1 : half-life value = 204

###

test: AUClast in Sprague-Dawley rat at 1 mg/kg, iv by LC-MS/MS analysis
Format: ADME, organism-based
Parameters: time 0 - last, dose 1 mg/kg, route iv
assaySetup: in vivo
measurementLabel: AUC(0-t) (ng·h/mL)
Write it as a number; the unit ng·h/mL goes unstated.

// O=C(N[C@@H]1CCCNC1)c1cccc(Nc2ncc(Cl)c(NCc3cccc(F)c3)n2)c1 : AUC(0-t) value = 325

Taken from ChEMBL document CHEMBL5143560.
